Assay: Volume of distribution at steady state in overnight fasted Beagle dog at 0.51 mg/kg, iv measured upto 24 hrs by LC-MS/MS analysis
Type: ADME, organism-based, Canis lupus familiaris
Conditions: in vivo, read-out: Vdss
measure: Vd (L/kg)
State just the number; it will be interpreted in L/kg.

Report Vd for COc1cc(N[C@H](C(=O)c2c[nH]c3ccc(OC(F)(F)F)cc23)c2ccc(Cl)cc2OC)cc(S(C)(=O)=O)c1 [MOSNODENVIR] please. 3.1

* * *

Assay: Metabolic stability in human hepatocytes assessed as intrinsic clearance measured per million cells incubated upto 120 mins by LC-MS/MS analysis
Type: ADME, cell-based, Hepatocyte
Conditions: read-out: CLH
Answer each item with its documented hepatocyte CLint.

Bench note: what hepatocyte CLint did COc1cc(NC(C(=O)c2c[nH]c3cc(OC)c(C)cc23)c2ccc(Cl)cc2OCCO)cc(S(C)(=O)=O)c1 (single isomer, unassigned; (+)) show? < 1.9 µL/min/1e6 cells

Moving on to the next molecule: COc1cc(NC(C(=O)c2c[nH]c3c(C)c(OC)ccc23)c2ccc(Cl)cc2OC)cc(S(C)(=O)=O)c1 (single isomer, unassigned; (+)) 14 µL/min/1e6 cells

Another: COc1cc(NC(C(=O)c2c[nH]c3cc(F)ccc23)c2ccc(F)cc2OC)cc(S(C)(=O)=O)c1 (stereo not drawn) < 1.9 µL/min/1e6 cells

Another molecule: COc1cc(NC(C(=O)c2c[nH]c3cc(OC)c(OC(F)(F)F)cc23)c2ccc(Cl)cc2OC)cc(S(C)(=O)=O)c1 (single isomer, unassigned; (+)) < 1.2 µL/min/1e6 cells

What do you get for COc1cc(NC(C(=O)c2c[nH]c3cc(OC)c(F)cc23)c2ccc(Cl)cc2OC)cc(S(C)(=O)=O)c1 (single isomer, unassigned; (+)) ? 10 µL/min/1e6 cells

Thanks! And COc1cc(NC(C(=O)c2c[nH]c3ccccc23)c2ccc(F)cc2OC)cc(S(C)(=O)=O)c1 (single isomer, unassigned; (+)) ? 7 µL/min/1e6 cells

# repeat for COc1cc(NC(C(=O)c2c[nH]c3cc(OC)c(C)cc23)c2ccc(F)cc2OCCO)cc(S(C)(=O)=O)c1 (single isomer, unassigned; (+)) < 1.9 µL/min/1e6 cells

Moving on to the next molecule: COc1cc(NC(C(=O)c2c[nH]c3ccc(C(F)(F)F)cc23)c2ccc(Cl)cc2OC)cc(S(C)(=O)=O)c1 (single isomer, unassigned; (+)) < 1.2 µL/min/1e6 cells

* * *

Tested on: mouse P-gp
Assay: Efflux ratio of permeability from basolateral to apical side over apical to basolateral side in pig LLC-PK1 cells transfected with mouse P-gp at 1 uM measured upto 120 mins
Type: ADME, cell-based, Sus scrofa
measure: efflux ratio at 2 h, 1 µM

Would you mind telling me what efflux ratio at 2 h, 1 µM value was observed for COc1cc(N[C@H](C(=O)c2c[nH]c3ccc(OC(F)(F)F)cc23)c2ccc(Cl)cc2OC)cc(S(C)(=O)=O)c1 [MOSNODENVIR] ? ~4

* * *

Please respond with reported AUC for every item in the list.
Test: AUC in Sprague-Dawley rat at 10 mg/kg, po measured after 24 to 48 hrs by LC-MS/MS analysis
Format: ADME, organism-based
Conditions: in vivo, time 24-48 hrs
State the value, then name its unit.

GET /values?readout=AUC&item= COc1cc(NC(C(=O)c2c[nH]c3cc(F)ccc23)c2ccc(F)cc2OC)cc(S(C)(=O)=O)c1 (configuration not stated) 5210 ng·h/mL

Again, but for COc1cc(NC(C(=O)c2c[nH]c3cc(F)ccc23)c2ccc(F)cc2OCCO)cc(S(C)(=O)=O)c1 (single isomer, unassigned; (+)) 1250 ng·h/mL

Item: COc1cc(NC(C(=O)c2c[nH]c3cc(OC)c(C)cc23)c2ccc(Cl)cc2OCCO)cc(S(C)(=O)=O)c1 (single isomer, unassigned; (+)) 1200 ng·h/mL

Please give the result for COc1cc(NC(C(=O)c2c[nH]c3cc(OC)c(C)cc23)c2ccc(F)cc2OC)cc(S(C)(=O)=O)c1 (single isomer, unassigned; (+)) too. 3700 ng·h/mL

Subsequent entry: COc1cc(N[C@H](C(=O)c2c[nH]c3ccc(OC(F)(F)F)cc23)c2ccc(Cl)cc2OC)cc(S(C)(=O)=O)c1 [MOSNODENVIR] 15400 ng·h/mL

Okay, and COc1cc(NC(C(=O)c2c[nH]c3cc(OC)c(C)cc23)c2ccc(F)cc2OCCO)cc(S(C)(=O)=O)c1 (single isomer, unassigned; (+)) ? 1010 ng·h/mL

Repeat for the following compound: COc1cc(NC(C(=O)c2c[nH]c3cc(OC)c(C)cc23)c2ccc(Cl)cc2OC)cc(S(C)(=O)=O)c1 (configuration not stated) 5140 ng·h/mL
